Measured EC50 of individual entries
biological target: Ba/F3 stable cells (Homo sapiens, UniProt P00533, DUP767-769, cells depend on it); construct: EC50 Ba/F3-EGFR V769-D770insASV; other: Ba/F3-EGFR V769-D770insASV cells, 72 h, CCK-8; assay: EC50 assay: Ba/F3 stable cell proliferation (CCK-8, 72 h); details: Ba/F3-EGFR V769-D770insASV cells
Sequence (P00533 with tags, fused parts or gaps DUP767-769): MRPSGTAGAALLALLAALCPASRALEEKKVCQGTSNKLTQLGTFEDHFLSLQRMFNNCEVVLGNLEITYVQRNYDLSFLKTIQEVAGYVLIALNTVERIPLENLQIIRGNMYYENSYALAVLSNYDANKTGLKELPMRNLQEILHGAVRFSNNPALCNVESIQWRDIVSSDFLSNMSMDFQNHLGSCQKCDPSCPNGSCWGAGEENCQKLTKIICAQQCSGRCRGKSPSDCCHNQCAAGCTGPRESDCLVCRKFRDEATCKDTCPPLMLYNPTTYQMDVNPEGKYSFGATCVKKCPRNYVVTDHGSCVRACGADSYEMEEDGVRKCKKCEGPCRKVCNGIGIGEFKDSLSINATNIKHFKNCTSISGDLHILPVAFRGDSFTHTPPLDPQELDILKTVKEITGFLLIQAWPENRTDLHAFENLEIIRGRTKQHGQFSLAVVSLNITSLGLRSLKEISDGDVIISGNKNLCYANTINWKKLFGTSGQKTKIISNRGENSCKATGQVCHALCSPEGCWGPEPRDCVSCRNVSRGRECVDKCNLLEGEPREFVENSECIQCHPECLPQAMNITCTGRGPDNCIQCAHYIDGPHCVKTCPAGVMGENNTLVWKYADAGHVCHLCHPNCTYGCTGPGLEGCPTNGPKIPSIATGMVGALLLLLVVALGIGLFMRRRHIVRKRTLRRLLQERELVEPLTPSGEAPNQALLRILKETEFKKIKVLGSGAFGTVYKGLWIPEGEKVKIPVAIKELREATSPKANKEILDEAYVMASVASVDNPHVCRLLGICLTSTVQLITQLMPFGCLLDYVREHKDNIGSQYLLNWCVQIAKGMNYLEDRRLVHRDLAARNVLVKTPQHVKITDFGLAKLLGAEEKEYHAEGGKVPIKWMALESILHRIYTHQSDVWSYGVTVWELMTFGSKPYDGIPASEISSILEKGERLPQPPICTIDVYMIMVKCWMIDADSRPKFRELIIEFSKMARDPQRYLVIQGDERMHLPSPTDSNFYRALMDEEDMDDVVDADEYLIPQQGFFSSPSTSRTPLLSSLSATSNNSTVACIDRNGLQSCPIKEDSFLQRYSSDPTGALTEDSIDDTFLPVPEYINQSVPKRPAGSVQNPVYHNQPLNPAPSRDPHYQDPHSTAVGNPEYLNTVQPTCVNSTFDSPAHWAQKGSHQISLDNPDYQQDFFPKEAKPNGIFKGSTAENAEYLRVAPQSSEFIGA

Data request, read-out EC50, for C=CC(=O)N1CCC(Oc2cc3c(Nc4ccc(C)c5ccccc45)ncnc3cc2OC)CC1
200 to 1000 nM

Continue with C=CC(=O)N1CCC(Oc2cc3c(Nc4ccc5ccccc5n4)ncnc3cc2OC)CC1
200 to 1000 nM

Please give the result for C=CC(=O)NC1CC(Oc2cc3c(Nc4ccc(F)c(Cl)c4Cl)ncnc3cc2OC)C1 (stereo not shown) too.
≤ 200 nM

Same lookup for C=CC(=O)N[C@H]1C[C@@H](Oc2cc3c(Nc4cccc5ccccc45)ncnc3cc2OC)C1 , please.
≤ 200 nM

###

biological target: Ba/F3 stable cells (Homo sapiens, UniProt P00533, DUP768-770, cells depend on it); construct: EC50 Ba/F3-EGFR D770-N771insSVD; other: Ba/F3-EGFR D770-N771insSVD cells, 72 h, CCK-8; assay: EC50 assay: Ba/F3 stable cell proliferation (CCK-8, 72 h); settings: Ba/F3-EGFR D770-N771insSVD cells
Sequence (P00533 with tags, fused parts or gaps DUP768-770): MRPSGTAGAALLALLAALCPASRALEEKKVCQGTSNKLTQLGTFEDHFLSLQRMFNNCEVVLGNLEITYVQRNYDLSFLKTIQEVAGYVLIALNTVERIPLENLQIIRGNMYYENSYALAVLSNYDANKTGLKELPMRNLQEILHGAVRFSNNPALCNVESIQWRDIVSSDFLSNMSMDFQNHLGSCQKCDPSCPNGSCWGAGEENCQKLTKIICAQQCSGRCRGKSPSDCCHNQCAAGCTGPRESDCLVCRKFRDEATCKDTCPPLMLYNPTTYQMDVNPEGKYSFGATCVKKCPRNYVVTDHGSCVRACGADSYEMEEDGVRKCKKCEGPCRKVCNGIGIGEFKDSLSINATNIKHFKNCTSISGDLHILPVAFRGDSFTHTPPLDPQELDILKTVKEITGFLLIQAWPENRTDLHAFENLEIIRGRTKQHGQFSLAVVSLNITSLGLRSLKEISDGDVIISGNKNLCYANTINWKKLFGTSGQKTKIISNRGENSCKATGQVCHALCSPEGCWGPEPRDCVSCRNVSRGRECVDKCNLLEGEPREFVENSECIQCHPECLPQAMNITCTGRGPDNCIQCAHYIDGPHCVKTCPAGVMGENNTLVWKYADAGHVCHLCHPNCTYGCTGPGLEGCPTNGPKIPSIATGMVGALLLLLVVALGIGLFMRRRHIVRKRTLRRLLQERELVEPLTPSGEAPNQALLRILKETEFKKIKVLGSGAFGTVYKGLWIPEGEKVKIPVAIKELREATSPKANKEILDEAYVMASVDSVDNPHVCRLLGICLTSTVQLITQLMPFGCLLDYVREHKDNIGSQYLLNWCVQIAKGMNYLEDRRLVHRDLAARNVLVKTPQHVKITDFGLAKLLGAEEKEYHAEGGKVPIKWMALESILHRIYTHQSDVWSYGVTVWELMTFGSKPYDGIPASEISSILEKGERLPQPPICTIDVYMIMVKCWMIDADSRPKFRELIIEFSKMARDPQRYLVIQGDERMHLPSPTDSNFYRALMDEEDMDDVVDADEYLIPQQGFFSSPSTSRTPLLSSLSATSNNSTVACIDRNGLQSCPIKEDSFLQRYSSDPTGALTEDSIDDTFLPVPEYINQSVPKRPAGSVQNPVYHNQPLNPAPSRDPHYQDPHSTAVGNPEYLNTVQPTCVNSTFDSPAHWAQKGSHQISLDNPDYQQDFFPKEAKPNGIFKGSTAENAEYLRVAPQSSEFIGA
pEC50: −log10 of the molar value. Structures can show the parent of a compound that is named as a salt.
MEASURED METRIC: pEC50

# example entries with known answers
CC#CC(=O)NC1CC(Oc2cc3c(Nc4ccc(Cl)c(Cl)c4F)ncnc3cc2OC)C1 (stereo not drawn): 6.00 to 6.70
C=CC(=O)N1CCC(Oc2cc3c(Nc4cc5oc6ccccc6c5cc4OC)ncnc3cc2OC)CC1: < 6.00
C=CC(=O)N1CC(Oc2c(OC)cc3ncnc4c3c2NC(=O)N4c2ccc(Cl)c(Cl)c2F)C1: ≥ 6.70

GET /values?readout=pEC50&system=Ba/F3 stable cells (Homo sapiens, UniProt P00533, DUP768-770, cells depend on it)&item= C#CC(=O)N1CCC(Oc2cc3c(Nc4ccc(Cl)c(Cl)c4F)ncnc3cc2OC)CC1
≥ 6.70

Further, for C=CC(=O)N1CCC=C(c2cc3c(Nc4ccc(Cl)c(Cl)c4F)ncnc3cc2OC)C1 ?
6.00 to 6.70

How about this compound: C=CC(=O)N1CCC(Oc2cc3c(NCc4ccccc4F)ncnc3cc2OC)CC1
< 6.00

Note, next up: COc1cc2ncnc(Nc3ccc(Cl)c(Cl)c3F)c2cc1OC1CC(NC(=O)/C=C/CN(C)C)C1 (stereo not drawn)
6.00 to 6.70

Ok, now C=CC(=O)N[C@H]1CC[C@@H](Oc2cc3c(Nc4ccc(Cl)c(Cl)c4F)ncnc3cc2OC)CC1
< 6.00

Another compound to look at: C=CC(=O)N1CCC(Oc2cc3c(Nc4ccc5c(c4)CCC5)ncnc3cc2OC)CC1
6.00 to 6.70

And the next one, C=CC(=O)NC1CC(Oc2cc3c(Nc4ccc(F)c(C#N)c4)ncnc3cc2OC)C1 (stereo not drawn) ?
< 6.00

// query: C=CS(=O)(=O)N1CCC(Oc2c(OC)cc3ncnc4c3c2NC(=O)N4c2ccc(Cl)c(Cl)c2F)CC1
≥ 6.70

How about this compound: C=CC(=O)N1CCC(Oc2c(OC)cc3ncnc4c3c2C=C(C)N4c2ccc(Cl)c(Cl)c2F)CC1
6.00 to 6.70

Item: C=CC(=O)N1CCC(Oc2c(OC)cc3ncnc(Nc4ccc(Cl)c(Cl)c4F)c3c2[N+](=O)[O-])CC1
< 6.00

Moving on to C=CC(=O)N1CCC(Oc2cc3c(Nc4ccc5ccccc5n4)ncnc3cc2OC)CC1
< 6.00

Now consider C=CC(=O)N1CC(c2cc3c(Nc4ccc(Cl)c(Cl)c4F)ncnc3cc2OC)C1 .
≥ 6.70

Repeat with C=CC(=O)N1CCC=C(c2ccc3ncnc(Nc4ccc(Cl)c(Cl)c4F)c3c2)C1
6.00 to 6.70

Can you check C=CC(=O)N1C2CCC1CC(Oc1cc3c(Nc4cccc5c4CCC5)ncnc3cc1OC)C2 (stereo not drawn) next?
6.00 to 6.70

Ok, now COc1cc2ncnc(Nc3ccc(Cl)c(Cl)c3F)c2c([N+](=O)[O-])c1OC1CCNCC1 [Compound 207, hydrochloride]
< 6.00

// query: C=CC(=O)N1CCC(Oc2cc3c(Nc4ccc5nccnc5c4)ncnc3cc2OC)CC1
< 6.00

Next up: C=CC(=O)N1CCC(Oc2cc3c(Nc4ccc(C)c5ccccc45)ncnc3cc2OC)CC1
< 6.00

Further, for C=CC(=O)NC1CC(Oc2cc3c(Nc4cccc5c4CCCC5)ncnc3cc2OC)C1 (stereo not drawn) ?
< 6.00

Now give it for C=CC(=O)NC1CC(Oc2cc3c(Nc4ccc(Cl)c(F)c4Cl)ncnc3cc2OC)C1 (stereo not drawn) too.
< 6.00

What would you report for C=CC(=O)NC1CC(Oc2cc3c(Nc4ccc5c(c4)CCCC5O)ncnc3cc2OC)C1 (stereo not drawn) ?
< 6.00

Next entry: C=CC(=O)N1CCC(Oc2cc3c(Nc4cccc5cccnc45)ncnc3cc2OC)CC1
6.00 to 6.70

###

Target: Ba/F3 stable cells (Homo sapiens, UniProt P00533, DUP767-769, cells depend on it)
Construct: EC50 Ba/F3-EGFR V769-D770insASV; other: Ba/F3-EGFR V769-D770insASV cells, 72 h, CCK-8
Test: EC50 assay: Ba/F3 stable cell proliferation (CCK-8, 72 h)
Details: Ba/F3-EGFR V769-D770insASV cells
Experimental: 4,000 Ba/F3 stable cells/90 μL/well were plated onto 96-well cell culture plate (Grenier, Cat.No. 655180) and incubated at 37° C. with a humidified atmosphere of 5% CO2 for 2 h. Then the cells were treated with 10 μL compounds at serial titration. […] 10 μL the cell proliferation reagent CCK-8 (Dojindo, Cat.No. CK04 1000T) was added into each well and incubated the plate at 37° C. for 4 hours, the GD value was measured by SPECTRAmax plus (Molecular Devices) at 450 nm. […]
MEASURED METRIC: EC50

Reference set (4 entries):
C=CC(=O)N1CCC(Oc2cc3c(Nc4ccc5c(c4)CCN5S(C)(=O)=O)ncnc3cc2OC)CC1: > 1000 nM
C=CC(=O)N1CCC(Oc2cc3c(Nc4cccc5c4CCC5)ncnc3cc2OC)CC1: ≤ 200 nM
C=CC(=O)N[C@H]1C[C@@H](Oc2cc3c(Nc4ccc(Cl)c(Cl)c4F)ncnc3cc2OCCO)C1: ≤ 200 nM
C=CC(=O)NC1CC(Oc2cc3c(Nc4ccc(Cl)c(F)c4Cl)ncnc3cc2OC)C1 (centres unmarked): 200 to 1000 nM

Turning now to a further compound:
Look up EC50: C=CC(=O)N1CCC(Oc2cc3c(C(=O)c4ccc(Cl)c(Cl)c4F)ncnc3cc2OC)CC1
≤ 200 nM

###

molecular target: Ba/F3 stable cells (Homo sapiens, UniProt P00533, T790M/L858R, cells depend on it); construct: EC50 Ba/F3-EGFR L858R-T790M; other: Ba/F3-EGFR L858R-T790M cells, 72 h, CCK-8; experiment: EC50 assay: Ba/F3 stable cell proliferation (CCK-8, 72 h); conditions: Ba/F3-EGFR L858R-T790M cells
Sequence (P00533 whole entry T790M/L858R): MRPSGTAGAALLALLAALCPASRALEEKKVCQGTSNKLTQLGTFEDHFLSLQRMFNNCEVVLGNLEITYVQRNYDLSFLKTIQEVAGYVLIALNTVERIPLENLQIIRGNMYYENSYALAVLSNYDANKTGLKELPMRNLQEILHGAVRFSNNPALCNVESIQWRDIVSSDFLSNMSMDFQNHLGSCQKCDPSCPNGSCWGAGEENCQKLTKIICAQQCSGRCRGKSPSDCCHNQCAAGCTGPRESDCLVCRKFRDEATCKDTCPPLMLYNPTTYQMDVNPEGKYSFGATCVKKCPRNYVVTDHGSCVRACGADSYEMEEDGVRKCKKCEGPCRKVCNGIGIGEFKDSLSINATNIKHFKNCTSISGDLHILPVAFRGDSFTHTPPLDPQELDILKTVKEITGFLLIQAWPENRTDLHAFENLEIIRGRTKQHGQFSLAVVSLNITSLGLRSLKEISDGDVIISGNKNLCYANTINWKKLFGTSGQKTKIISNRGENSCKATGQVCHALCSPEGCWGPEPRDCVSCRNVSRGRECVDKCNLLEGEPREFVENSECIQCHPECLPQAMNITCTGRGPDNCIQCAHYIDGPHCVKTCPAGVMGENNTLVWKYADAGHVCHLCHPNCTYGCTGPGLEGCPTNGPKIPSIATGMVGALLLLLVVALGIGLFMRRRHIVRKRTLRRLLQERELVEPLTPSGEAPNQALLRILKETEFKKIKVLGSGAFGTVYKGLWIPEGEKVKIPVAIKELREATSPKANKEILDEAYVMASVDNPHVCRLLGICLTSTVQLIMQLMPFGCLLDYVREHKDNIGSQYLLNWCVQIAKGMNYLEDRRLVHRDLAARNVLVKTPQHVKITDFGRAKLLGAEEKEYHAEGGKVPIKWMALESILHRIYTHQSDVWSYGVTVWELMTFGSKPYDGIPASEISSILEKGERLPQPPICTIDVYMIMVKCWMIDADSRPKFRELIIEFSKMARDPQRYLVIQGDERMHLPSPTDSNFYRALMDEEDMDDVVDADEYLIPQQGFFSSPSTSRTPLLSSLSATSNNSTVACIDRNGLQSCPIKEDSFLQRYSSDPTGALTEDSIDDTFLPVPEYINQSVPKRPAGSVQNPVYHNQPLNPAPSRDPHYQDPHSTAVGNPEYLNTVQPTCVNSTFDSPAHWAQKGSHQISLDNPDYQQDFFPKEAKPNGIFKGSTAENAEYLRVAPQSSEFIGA
pEC50: −log10 of the molar value.
MEASURED METRIC: pEC50

C=CC(=O)N1CC(c2cc3c(Nc4ccc(Cl)c5ccccc45)ncnc3cc2OC)C1: ≥ 6.70
C=CC(=O)NC1CC(Oc2cc3c(C(=O)NCc4ccc(F)cc4)ncnc3cc2OC)C1 (centres unmarked): < 6.00

// moving on: another record for pEC50
Give the measured pEC50 of C=CC(=O)N1CCC(Oc2cc3c(C(=O)c4ccc(Cl)c(Cl)c4F)ncnc3cc2OC)CC1 .
6.00 to 6.70

###

As shown below, each of these compounds has a reported EC50 value.
target: Ba/F3 stable cells (Homo sapiens, UniProt P00533, DUP767-769, cells depend on it); construct: EC50 Ba/F3-EGFR V769-D770insASV; other: Ba/F3-EGFR V769-D770insASV cells, 72 h, CCK-8; test: EC50 assay: Ba/F3 stable cell proliferation (CCK-8, 72 h); format: cell-based; conditions: Ba/F3-EGFR V769-D770insASV cells

Check out these entries, answers already filled in.
C=CC(=O)NC1CC(Oc2cc3c(Nc4ccc(F)c5c4CCC5O)ncnc3cc2OC)C1 (centres unmarked): > 1 µM
C=CC(=O)N1CC(c2cc3c(Nc4ccc(Cl)c(Cl)c4F)ncnc3cc2O[C@H]2CCOC2)C1: > 1 µM
C=CC(=O)N1CCC(Oc2cc3c(Nc4cnc5ccccc5c4)ncnc3cc2OC)CC1: ≤ 0.2 µM
C#CC(=O)N1CCC(Oc2c(OC)cc3ncnc4c3c2NC(=O)N4c2ccc(Cl)c(Cl)c2)CC1: 0.2 to 1 µM
C=CC(=O)N1CC(c2cc3c(Nc4ccc(Cl)c(Cl)c4F)ncnc3cc2OCCCN2CCN(C)CC2)C1: ≤ 0.2 µM

Find EC50 (Ba/F3 stable cells (Homo sapiens, UniProt P00533, DUP767-769, cells depend on it)) for the entry C=CC(=O)N1CCC=C(c2ccc3ncnc(Nc4ccc(Cl)c(Cl)c4F)c3c2)C1
≤ 0.2 µM

Query COc1cc2ncnc(Nc3ccc(Cl)c(Cl)c3F)c2cc1OC1CCN(C#N)CC1 next
≤ 0.2 µM

Also COc1cc2ncnc(Nc3ccc(Cl)c(Cl)c3F)c2cc1C1CN(C#N)C1 , if possible.
> 1 µM

C=CC(=O)N1CCC(c2cc3c(Nc4ccc(Cl)c(Cl)c4F)ncnc3cc2OC)C1 (centres unmarked) , same question.
≤ 0.2 µM

Then C=CC(=O)N1C2CCCC1CC(Oc1cc3c(Nc4ccc5ccccc5c4)ncnc3cc1OC)C2 (centres unmarked) ?
≤ 0.2 µM

Could you do the same for C=CC(=O)N1CC(c2cc3c(Nc4ccc(F)c(Cl)c4F)ncnc3cc2OC)C1 , please?
≤ 0.2 µM

Repeat for the following compound: C#CC(=O)N1C2CCC1CC(Oc1cc3c(Nc4cccc5ccccc45)ncnc3cc1OC)C2 (centres unmarked)
≤ 0.2 µM

And C=CC(=O)N1CCC(Oc2cc3c(NCc4ccccc4Cl)ncnc3cc2OC)CC1 ?
≤ 0.2 µM

Also check C=CC(=O)N1CCC(Oc2cc3c(NCc4ccccc4F)ncnc3cc2OC)CC1
0.2 to 1 µM
